- assay-notes: Selectivity index, ratio of CC50 for human HepG2.2.15 cells to IC50 for capsid protein in Hepatitis B virus infected in human HepG2.2.15 cells assessed as reduction in viral DNA level
- Assay type: toxicity, cell-based
- condition-description: read-out: Ratio CC50/IC50
Each entry below carries its reported selectivity ratio.
property-measured: selectivity ratio

- compound-structure-string: "CCN(CC)CCOc1ccc2nc(SCc3ccccc3)n(Cc3cccs3)c(=O)c2c1"
  property-measured: "selectivity ratio"
  recorded-result: 22.2
- compound-structure-string: "CCN(CC)CCOc1ccc2nc(SCc3ccccc3OC)n(Cc3cccs3)c(=O)c2c1"
  property-measured: "selectivity ratio"
  recorded-result: 5.25
- compound-structure-string: "COc1ccccc1CSc1nc2ccccc2c(=O)n1Cc1cccs1"
  property-measured: "selectivity ratio"
  recorded-result: "> 35.6"
- compound-structure-string: "COc1ccc(C(C)=O)cc1CSc1nc2ccccc2c(=O)n1Cc1cccs1"
  property-measured: "selectivity ratio"
  recorded-result: 17.6
- compound-structure-string: "Nc1ccn([C@@H]2CS[C@H](CO)O2)c(=O)n1"
  property-measured: "selectivity ratio"
  recorded-result: "> 1000"
- compound-structure-string: "CN(C)CCOc1ccc2nc(SCc3ccccc3)n(Cc3cccs3)c(=O)c2c1"
  property-measured: "selectivity ratio"
  recorded-result: 13.7
- compound-structure-string: "COc1ccccc1CSc1nc2ccc(F)cc2c(=O)n1Cc1cccs1"
  property-measured: "selectivity ratio"
  recorded-result: "> 40.5"
